Origin of measurements: patent US12522594B2

Target: AHR (Homo sapiens)
Sequence (P35869 11-848): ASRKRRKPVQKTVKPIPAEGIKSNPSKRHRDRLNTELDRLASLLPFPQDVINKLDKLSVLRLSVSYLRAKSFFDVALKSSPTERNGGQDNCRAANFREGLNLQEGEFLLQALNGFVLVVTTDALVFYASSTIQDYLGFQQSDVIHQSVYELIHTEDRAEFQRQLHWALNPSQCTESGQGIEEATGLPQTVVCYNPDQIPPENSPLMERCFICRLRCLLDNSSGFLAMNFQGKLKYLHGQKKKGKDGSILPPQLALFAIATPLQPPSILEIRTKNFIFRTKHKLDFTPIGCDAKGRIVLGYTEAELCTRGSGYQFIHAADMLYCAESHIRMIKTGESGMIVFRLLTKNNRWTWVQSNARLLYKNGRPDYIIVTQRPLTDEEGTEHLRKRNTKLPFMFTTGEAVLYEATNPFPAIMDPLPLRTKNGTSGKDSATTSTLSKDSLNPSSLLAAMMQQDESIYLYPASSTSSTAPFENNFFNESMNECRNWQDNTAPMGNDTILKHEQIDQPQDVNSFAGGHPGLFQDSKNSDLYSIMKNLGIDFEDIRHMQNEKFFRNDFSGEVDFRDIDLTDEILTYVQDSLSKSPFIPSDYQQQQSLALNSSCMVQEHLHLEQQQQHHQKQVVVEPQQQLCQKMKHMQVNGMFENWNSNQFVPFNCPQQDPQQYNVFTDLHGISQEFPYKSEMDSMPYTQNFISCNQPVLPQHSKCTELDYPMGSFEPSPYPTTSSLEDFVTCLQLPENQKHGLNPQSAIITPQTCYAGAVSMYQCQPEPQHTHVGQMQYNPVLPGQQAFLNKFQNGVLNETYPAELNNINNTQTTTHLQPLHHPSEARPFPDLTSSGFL
Experiment: In vitro assay 2: agonism in human cell line (transactivation assay, U87 cells, DRE firefly luciferase reporter)
Assay type: cell-based
Parameters: host or cells: U87 glioblastoma cells, stably transfected with DRE firefly luciferase and renilla reporter constructs
Settings: no kynurenic acid, 20 hours, read-out: Assay 2: AHR-luc Hum Agonism IC50
pIC50: −log10 of the molar value.
Measured pIC50 of individual entries

- COMPOUND: "O=C(N[C@H](CO)CF)c1cc(-c2ccc(C(F)(F)F)cc2)nn(-c2cnsc2)c1=O [Example 203]"
  ASSAY TARGET: "AHR (Homo sapiens)"
  pIC50: "< 4.70"
- COMPOUND: "O=C(N[C@H]1COC[C@H]1O)c1cc(-c2ccc(C(F)F)nc2)nn(-c2cccnc2)c1=O (single isomer, unassigned) [Example 184]"
  ASSAY TARGET: "AHR (Homo sapiens)"
  pIC50: "< 4.70"
- COMPOUND: "Cn1cc(-n2nc(-c3ccc(Cl)cc3)cc(C(=O)NCC(O)C(F)F)c2=O)cn1 (single isomer, unassigned; (+)) [Example 23]"
  ASSAY TARGET: "AHR (Homo sapiens)"
  pIC50: "< 4.70"
- COMPOUND: "O=C(N[C@H]1CCC[C@H]1O)c1cc(-c2ccc(OC(F)(F)F)cc2)nn(-c2cccnc2)c1=O [Example 147]"
  ASSAY TARGET: "AHR (Homo sapiens)"
  pIC50: "< 4.70"
- COMPOUND: "O=C(N[C@H]1CCC[C@@H]1O)c1cc(-c2ccc(OC(F)(F)F)cc2)nn(-c2cccnc2)c1=O [Example 132]"
  ASSAY TARGET: "AHR (Homo sapiens)"
  pIC50: "< 4.70"

# pIC50 lookup, item O=C(NC[C@H](O)C(F)(F)F)c1cc(-c2ccc(Cl)cc2)nn(-c2cnn(C(F)F)c2)c1=O [Example 256]
< 4.70

And then O=C(N[C@H]1COC[C@@H]1O)c1cc(-c2ccc(OC(F)(F)F)cc2)nn(-c2cccnc2)c1=O (racemic) [Example 160] , what is it?
< 4.70

Further, for Cc1cc(-n2nc(-c3ccc(Cl)cc3)cc(C(=O)NCC(C)(C)O)c2=O)cs1 [Example 246] ?
< 4.70

Now the compound COC[C@@H](CO)NC(=O)c1cc(-c2ccc(C(F)(F)F)cc2)nn(-c2cccnc2)c1=O [Example 257]
< 4.70

// next record C[C@@H](CO)NC(=O)c1cc(-c2ccc(C(F)(F)F)cc2)nn(-c2cnn(C)c2)c1=O [Example 39]
< 4.70
